Target: HDNO D6 (Paenarthrobacter nicotinovorans, UniProt P08159, A237T/A42S/E349L/E351D/N413H/V430A)
Construct: This full-length gene design was then used to introduce genetic diversity to create a library; His tag (N); made in house; host or cells: E. coli BL21 (DE3)
Sequence (P08159 other isoform, or with tags, fused parts or gaps A42S/A237T/E349L/E351D/N413H/V430A/C432S): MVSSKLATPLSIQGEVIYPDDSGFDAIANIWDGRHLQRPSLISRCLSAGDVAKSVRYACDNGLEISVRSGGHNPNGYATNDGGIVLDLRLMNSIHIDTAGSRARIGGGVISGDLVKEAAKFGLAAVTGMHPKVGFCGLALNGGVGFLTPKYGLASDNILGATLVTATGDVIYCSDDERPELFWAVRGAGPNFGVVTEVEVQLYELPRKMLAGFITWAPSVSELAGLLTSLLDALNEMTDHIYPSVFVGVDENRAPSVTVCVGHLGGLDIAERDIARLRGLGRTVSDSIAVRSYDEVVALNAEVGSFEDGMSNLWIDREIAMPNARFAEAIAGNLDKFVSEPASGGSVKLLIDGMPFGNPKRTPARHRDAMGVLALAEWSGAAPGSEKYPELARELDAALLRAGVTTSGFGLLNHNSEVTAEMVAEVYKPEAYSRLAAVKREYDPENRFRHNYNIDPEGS
Experiment: Biotransformation turnover frequencies of amine substrates (GC-FID)
Assay type: biochemical, Arthrobacter nicotinovorans
Settings: HDNO D6 0.05 mg mL^−1, 10 mM substrate, 30° C., pH 8 100 mM buffer, conversions after 10 min
In this section, each of the compounds is paired with its reported TOF.

>  <compound>
CC(N)c1ccccc1 (centres unmarked)

>  <unit name>
min⁻¹

>  <TOF>
0.66

$$$$
>  <compound>
CN(C)c1ccc(C2CCCN2)cc1 (centres unmarked)

>  <unit name>
min⁻¹

>  <TOF>
181.2

$$$$
>  <compound>
c1ccc(CCC2CCCN2)cc1 (centres unmarked)

>  <unit name>
min⁻¹

>  <TOF>
28.8

$$$$
>  <compound>
c1ccc([C@H]2CCCN2)cc1 [Mutant 1a, (R)-2-phenylpyrrolidine]

>  <unit name>
min⁻¹

>  <TOF>
79.8

$$$$
>  <compound>
CCCCC[C@@H](C)N

>  <unit name>
min⁻¹

>  <TOF>
0.42

$$$$
>  <compound>
Clc1cccc(C2CCCN2)c1 (centres unmarked)

>  <unit name>
min⁻¹

>  <TOF>
135.6

$$$$
>  <compound>
c1ccc(CCC2CCCCN2)cc1 (centres unmarked)

>  <unit name>
min⁻¹

>  <TOF>
8.4

$$$$
